System tested: T1, HLA-A*02:01 (peptide-receptive MHC class I monomer from UV-ligand exchange) (human)
T1 construct: Monomers were captured on streptavidin-coated plates
Protocol notes: UV-exchange ELISA (anti-b2m); exchange yield grade: + >=10%, ++ >=20%, +++ >=50%, ++++ >=75%
Square brackets hold non-standard residues; d marks the D form. Ends that are not written are not given here. pS = N[C@@H](COP(=O)(O)O)C(=O)O
Measured parameter: peptide exchange yield

• LVYQFVHPI [peptide LVYQFVHPI (SEQ ID NO 116)] = 20 to 50%
• FLDKPEDVLL [peptide FLDKPEDVLL (SEQ ID NO 14)] = 20 to 50%

Recorded peptide exchange yield (binder SLAELVPGVGGI [peptide SLAELVPGVGGI (SEQ ID NO 108)] ): 50 to 75%

Kindly note the recorded peptide exchange yield for ALDGDQMEL [peptide ALDGDQMEL (SEQ ID NO 109)] , which is 20 to 50%

Lookup result for KLLAVIHEL (also called RAD54B-002) [peptide KLLAVIHEL (SEQ ID NO 152)] ; measured peptide exchange yield: 20 to 50%

The binder identified as SLISEKILL [peptide SLISEKILL (SEQ ID NO 106)] registered its peptide exchange yield at 50 to 75%

// recorded peptide exchange yield for RLL[pS]PLSSA (Printed with J for phosphoserine; the plain residue at position 4 is serine) [peptide RLLJPLSSA (SEQ ID NO 179)] : 50 to 75%

# binder RLQETEGMVAV [peptide RLQETEGMVAV (SEQ ID NO 171)] ; its peptide exchange yield = 20 to 50%
